Cited source for all entries: paper PMC7156458

test-system: Aβ42 (Homo sapiens, UniProt P05067)
Sequence (P05067 672-713): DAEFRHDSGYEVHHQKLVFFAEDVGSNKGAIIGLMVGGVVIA
method: Th-T (thioflavin-T) assay of Aβ42 aggregation
Type: biochemical
experimental-conditions: Supplementary Fig. 47 source data; measurement M40 of time course
experimental-endpoint: Th-T fluorescence, mean of three wells
I only need the number, thanks.

Please review the following examples before continuing.
compound | test-system | Th-T fluorescence, mean of three wells
C=C1CC[C@H]2[C@]3(C)C[C@H](C=C(C)C)O[C@H]3CC[C@]2(C)[C@@H]1Cc1c(OC)oc(CO)c(C)c1=O | Aβ42 (Homo sapiens, UniProt P05067) | 3.844
C=C1CCC2C3(C)CC(C=C(C)C)OC3CCC2(C)C1Cc1c(OC)oc(C)c(C)c1=O (stereo not drawn) | Aβ42 (Homo sapiens, UniProt P05067) | 3.945
C=C1CCC2C(C)(CC(=O)C=C(C)C)C(O)CCC2(C)C1Cc1c(OC)oc(C)c(C)c1=O (stereo not drawn) | Aβ42 (Homo sapiens, UniProt P05067) | 3.696
C=C1CCC2C(C)(CC(=O)C=C(C)C)C(O)CCC2(C)C1Cc1c(OC)oc(CO)c(C)c1=O (stereo not drawn) | Aβ42 (Homo sapiens, UniProt P05067) | 3.484
CC(C)=CCC/C(C)=C/CC/C(C)=C/CC/C(C)=C/Cc1c(O)c(C)c(C)oc1=O | Aβ42 (Homo sapiens, UniProt P05067) | 2.757

Query block: For C=C1CCC2C(C)(CCC=C(C)C)C(=O)CCC2(C)C1Cc1c(O)c(C)c(C)oc1=O (stereo not drawn) , write its Th-T fluorescence, mean of three wells.
Result block: 2.183
